- System: ACHN renal
- Procedure summary: NCI tumour cell line growth inhibition, 48 h

Compound	TGI
C[C@H](Nc1ncnc2nc[nH]c12)c1cc2ccc(F)cc2nc1-c1ccccn1	> 100 µM
CO[C@@H]1C=C[C@@]23c4cc5c(cc4C(=O)O[C@H]2CN(C)[C@H]3C1)OCO5	> 100 µM
CC(=O)Nc1cc2c3c(c1)CCCN3CCC2	> 100 µM
C1=C(c2ccccc2)Nc2nnnn2C1c1ccccc1 (stereo unspecified)	57.2 µM
C=C(C)[C@@]1(OC(=O)c2cc([N+](=O)[O-])cc([N+](=O)[O-])c2)C[C@@H]2CCCC[C@@H]21	> 100 µM
CC(=O)NC(c1nc2cc(C)c(C)cc2[nH]1)c1nc2cc(C)c(C)cc2[nH]1	> 100 µM
CCOC(=O)c1c(Cl)nc2ccccc2c1N=[N+]=[N-]	> 100 µM
CCC[C@H](NS(=O)c1ccc(C)cc1)C(C(=O)OCC)=C(c1ccccc1)c1ccccc1 (stereo partly specified)	60.8 µM
COc1ccc(OCc2ccc3nc(-c4ccccc4)c(Cl)nc3c2)cc1	> 100 µM
COc1ccc2cc(C(=O)O)ccc2c1OC	> 100 µM
CCc1c(Cc2[nH]c(Cc3[nH]c(C=O)c(C)c3CC)c(CC)c2CC)[nH]c(C=O)c1C	> 100 µM
